These entries and their values trace back to ChEMBL document CHEMBL1153298.

target: Oxysterols receptor LXR-alpha (Homo sapiens)
Sequence (Q13133 whole entry): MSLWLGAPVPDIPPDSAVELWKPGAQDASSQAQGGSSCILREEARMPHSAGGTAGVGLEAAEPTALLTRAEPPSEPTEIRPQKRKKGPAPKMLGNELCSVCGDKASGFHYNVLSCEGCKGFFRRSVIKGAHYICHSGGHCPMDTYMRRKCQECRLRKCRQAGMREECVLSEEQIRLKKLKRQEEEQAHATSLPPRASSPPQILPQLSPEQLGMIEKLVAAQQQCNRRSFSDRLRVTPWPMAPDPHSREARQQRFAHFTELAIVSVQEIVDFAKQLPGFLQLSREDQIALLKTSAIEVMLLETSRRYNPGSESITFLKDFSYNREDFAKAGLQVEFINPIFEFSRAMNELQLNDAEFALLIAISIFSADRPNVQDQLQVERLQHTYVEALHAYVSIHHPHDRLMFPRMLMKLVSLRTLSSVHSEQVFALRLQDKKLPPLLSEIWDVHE
assay-readout: pIC50
Entry type: numeric. Quantity: pIC50, the -log10 of concentration in molar units.

Req: Which pIC50 value belongs to N#Cc1noc([C@](F)([C@H]2Cc3[nH]c4ccc(Cl)cc4c3C2)S(=O)(=O)c2ccccc2)n1 (racemic) ?
Resp: 7.00

* * *

test: Plasma concentration in C57BL/6J mouse at 40 mg/kg/day, ip dosed for 5 days
Format: ADME, organism-based
Set-up: route intraperitoneal
assay-readout: concentration at 120 h
Answer with the value and then the unit.

Req: Consider the compound shown here: Cc1nnc([C@](F)([C@H]2Cc3[nH]c4ccc(Cl)cc4c3C2)S(=O)(=O)c2ccccc2)o1 What is its recorded concentration at 120 h?
Resp: 682 ng/mL

* * *

test: Plasma concentration in C57BL/6J mouse at 10 mg/kg/day, ip dosed for 5 days
Type: ADME, organism-based
Parameters: route intraperitoneal
Overview of reported concentration at 120 h across a group of compounds:
Report as a plain number; the unit ng/mL is understood.

- compound: "O=S(=O)(c1ccccc1)N(CC(F)(F)F)c1ccc(C(O)(C(F)(F)F)C(F)(F)F)cc1 [T091317]"
  assay-readout: "concentration at 120 h"
  numeric-result: 255

API: the following record is the query input.
Req: Please look up its concentration at 120 h: Cc1nnc([C@](F)([C@H]2Cc3[nH]c4ccc(Cl)cc4c3C2)S(=O)(=O)c2ccccc2)o1
Resp: 180
